For each record, write down the corresponding growth inhibition.
ASSAY_NAME: NCI Yeast Anticancer Drug Screen. Data for the sgs1 mgt1 strain (AID 161);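 note: 0% = growth of cultures given vehicle only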
RECORDED_CONDITIONS: S. cerevisiae sgs1 mgt1 strain, at 5.0 µM (retest, dose inferred, filed as 0.5), stronger effect = higher value
About 79,000 compounds went through this panel and 15% of them were active in at least one assay; those are over-represented in the sample as a whole.
Give just the numeric value; % need not be written.

Recorded growth inhibition (molecule "Cc1ccc(S(=O)(=O)NCCSS(=O)(=O)c2ccc(C)cc2)cc1" ): 7

Recorded growth inhibition (molecule O=C1C2C(C(=O)N1c1ccc(OCc3ccccc3)cc1)C1c3ccccc3C2C2CCCCN21 (stereo not given) ): 1

Recorded growth inhibition (molecule C[CH2][Sn]([CH2]C)([O]C(=O)C(OC(C)=O)c1ccccc1)[O]C(=O)C(OC(C)=O)c1ccccc1 (stereo not given) ): 7

Recorded growth inhibition (molecule "O=C(NCCCNCCCNC(=O)c1cc(-c2ccccc2)nc2ccccc12)c1cc(-c2ccccc2)nc2ccccc12" ): 0

Recorded growth inhibition (molecule "c1ccc2c(c1)C(=NCCCN1CCCCCC1)c1cccn1-2" ): 2

Recorded growth inhibition (molecule CC(/C=C/c1ccc2c(c1)OCO2)[N+](=O)[O-] (stereo not given) ): 62

Recorded growth inhibition (molecule "BrCc1cccc2ccc3cccc(CBr)c3c12" ): -3

Recorded growth inhibition (molecule "O=C(N=Nc1cc(Cl)ccc1Cl)NNc1cc(Cl)ccc1Cl" ): 3

Recorded growth inhibition (molecule O=C1C2C=CC1C1C(=O)OC(=O)C21 (stereo not given) ): 1

Recorded growth inhibition (molecule "O=C(CCCN1CCC(O)(c2ccc(Cl)cc2)CC1)c1ccc(F)cc1" ): 60
